# Target: Tubulin (Homo sapiens) (UniProt P68371+Q9H4B7+P0DPH7+P68366+Q13509+Q71U36+P04350+Q3ZCM7+P07437+P68363+Q9BQE3+Q6PEY2+Q13885+Q9BVA1+Q9BUF5)
# Assay Explanation: Binding affinity to microtubules, activity expressed as ID50 of compound/ID50 of paclitaxel
# Format: protein-complex assay
Quantity Name: ID50 ratio
Note: the reply should be a number with no unit written.

Smiles Notation	ID50 ratio
CC(=O)O[C@@]12CO[C@@H]1C[C@H](O)[C@@]1(C)C(=O)[C@H](O)C3=C(C)[C@@H](OC(=O)[C@@H](NC(=O)OC(C)(C)C)[C@H](O)c4ccccc4)C[C@@](O)([C@@H](OC(=O)c4ccccc4)[C@H]21)C3(C)C	160

ID50 ratio recorded for this molecule, CC(=O)O[C@H]1C(=O)[C@@]2(C)[C@H]([C@H](OC(=O)c3ccccc3)[C@]3(O)C[C@H](OC(=O)[C@H](O)[C@@H](NC(=O)c4ccc(F)cc4)c4ccccc4)C(C)=C1C3(C)C)[C@]1(OC(C)=O)CO[C@@H]1C[C@@H]2O , is 1.2

Query CC(=O)O[C@H]1C(=O)[C@@]2(C)[C@H]([C@H](OC(=O)c3ccccc3)[C@]3(O)C[C@H](OC(=O)[C@H](O)[C@@H](NC(=O)c4ccccc4)c4ccc(Cl)cc4)C(C)=C1C3(C)C)[C@]1(OC(C)=O)CO[C@@H]1C[C@@H]2O yields ID50 ratio of 1.9

# ID50 ratio (molecule: CC(=O)O[C@H]1C(=O)[C@@]2(C)[C@H]([C@H](OC(=O)c3ccccc3)[C@]3(O)C[C@H](OC(=O)[C@H](O)[C@@H](NC(=O)/C(C)=N/NC(=O)OC(C)(C)C)c4ccccc4)C(C)=C1C3(C)C)[C@]1(OC(C)=O)CO[C@@H]1C[C@@H]2O ) is 14.1

###

Measured ID50 ratio of individual entries
# Target: Tubulin (Homo sapiens) (UniProt P68371+Q9H4B7+P0DPH7+P68366+Q13509+Q71U36+P04350+Q3ZCM7+P07437+P68363+Q9BQE3+Q6PEY2+Q13885+Q9BVA1+Q9BUF5)
# Assay Explanation: Binding affinity to microtubules, activity expressed as ID50 of compound/ID50 of paclitaxel
# Type: protein-complex assay
Response field accepts a number only; no unit should be typed.

// worked examples, ID50 ratio included
Smiles Notation	ID50 ratio
CC(=O)O[C@H]1C(=O)[C@]2(C)[C@@H](OC(=O)[C@H](N)CCC(=O)O)C[C@H]3OC[C@@]3(OC(C)=O)[C@H]2[C@H](OC(=O)c2ccccc2)[C@]2(O)C[C@H](OC(=O)[C@H](O)[C@@H](NC(=O)c3ccccc3)c3ccccc3)C(C)=C1C2(C)C	1
CC(=O)O[C@H]1C(=O)[C@@]2(C)[C@H]([C@H](OC(=O)c3ccccc3)[C@]3(O)C[C@H](OC(=O)[C@H](O)[C@@H](NC(=O)c4ccc(C(F)(F)F)cc4)c4ccccc4)C(C)=C1C3(C)C)[C@]1(OC(C)=O)CO[C@@H]1C[C@@H]2O	6
CC(=O)O[C@H]1C(=O)[C@@]2(C)[C@H]([C@H](OC(=O)c3ccccc3)[C@]3(O)C[C@H](OC(=O)[C@H](NC(=O)OC(C)(C)C)[C@@H](O)c4ccccc4)C(C)=C1C3(C)C)[C@]1(OC(C)=O)CO[C@@H]1C[C@@H]2O	10
CC(=O)O[C@H]1C(=O)[C@@]2(C)[C@H]([C@H](OC(=O)c3ccccc3)[C@]3(O)C[C@H](OC(=O)[C@H](O)[C@@H](NC(=O)c4cccc(Cl)c4)c4ccccc4)C(C)=C1C3(C)C)[C@]1(OC(C)=O)CO[C@@H]1C[C@@H]2O	2
CC(=O)O[C@H]1C(=O)[C@@]2(C)[C@H]([C@H](OC(=O)c3ccccc3)[C@]3(O)C[C@H](OC(=O)[C@H](O)[C@@H](NC(=O)OC(C)(C)C)c4ccco4)C(C)=C1C3(C)C)[C@]1(OC(C)=O)CO[C@@H]1C[C@@H]2O	1.7

Quick note, ID50 ratio for CC(=O)O[C@@]12CO[C@@H]1C[C@H](O)[C@@]1(C)C(=O)[C@H](O)C3=C(C)[C@@H](OC(=O)[C@H](O)[C@@H](NC(=O)c4ccccc4)c4ccccc4)C[C@@](O)([C@@H](OC(=O)c4ccccc4)[C@H]21)C3(C)C landed at 1.3

For reference, reported ID50 ratio for CC(=O)O[C@H]1C(=O)[C@@]2(C)[C@H]([C@H](OC(=O)c3ccccc3)[C@]3(O)C[C@H](OC(=O)[C@H](O)[C@@H](NC(=O)c4ccc(N=[N+]=[N-])cc4)c4ccccc4)C(C)=C1C3(C)C)[C@]1(OC(C)=O)CO[C@@H]1C[C@@H]2O stands at 2

Memo: CC(=O)O[C@H]1C(=O)[C@@]2(C)[C@H]([C@H](OC(=O)c3ccccc3)[C@]3(O)C[C@H](OC(=O)[C@@H](O)Cc4ccccc4)C(C)=C1C3(C)C)[C@]1(OC(C)=O)CO[C@@H]1C[C@@H]2O , reported ID50 ratio: 15.7

Entry source: ChEMBL document CHEMBL1127973
